Target: purified recombinantly expressed human SSAO (Homo sapiens (Human))
Sequence (Q16853 29-763): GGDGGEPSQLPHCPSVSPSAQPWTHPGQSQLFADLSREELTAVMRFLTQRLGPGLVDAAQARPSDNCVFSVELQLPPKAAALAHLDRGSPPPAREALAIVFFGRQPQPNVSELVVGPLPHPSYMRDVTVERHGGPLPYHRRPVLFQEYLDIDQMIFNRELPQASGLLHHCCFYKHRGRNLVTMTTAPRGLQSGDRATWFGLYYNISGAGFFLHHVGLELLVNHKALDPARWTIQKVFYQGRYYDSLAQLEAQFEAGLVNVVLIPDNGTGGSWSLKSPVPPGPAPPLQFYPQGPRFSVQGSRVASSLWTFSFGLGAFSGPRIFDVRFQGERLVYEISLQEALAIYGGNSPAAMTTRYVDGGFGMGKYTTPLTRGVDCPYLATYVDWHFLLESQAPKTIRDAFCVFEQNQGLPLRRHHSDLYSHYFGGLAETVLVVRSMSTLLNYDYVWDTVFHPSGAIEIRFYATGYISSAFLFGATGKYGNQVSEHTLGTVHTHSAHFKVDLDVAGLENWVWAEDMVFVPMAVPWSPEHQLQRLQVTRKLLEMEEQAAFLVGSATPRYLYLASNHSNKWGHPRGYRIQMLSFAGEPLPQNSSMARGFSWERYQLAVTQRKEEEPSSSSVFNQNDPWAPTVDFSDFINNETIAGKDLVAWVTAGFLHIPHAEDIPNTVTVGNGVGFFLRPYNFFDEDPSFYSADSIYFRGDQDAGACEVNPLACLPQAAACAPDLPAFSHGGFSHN
Assay: SSAO enzyme inhibition assay (HRP-coupled hydrogen peroxide detection or 14C-benzaldehyde detection, benzylamine substrate)
Details: human recombinant SSAO, RT
pIC50: −log10 of the molar value. Where a name gives a salt, the structure may show the parent alone.
OBSERVATION TYPE: pIC50

According to the records, this molecule "Clc1ccc(-n2c(-c3cccnc3)nc3ccncc32)cc1" displays pIC50 of 5.92 to 6.70

According to the records, this molecule "Cn1ccc(-c2nc3ccncc3n2-c2ccc(F)cc2)cc1=O" displays pIC50 of 5.92 to 6.70

Continuing:
According to the records, this molecule "Fc1ccc(-n2c(-c3cnc(N4CCOCC4)nc3)nc3ccncc32)nc1" displays pIC50 of 6.70 to 7.30

According to the records, this molecule "Brc1ccc(-n2c(-c3cnc(N4CCOCC4)nc3)nc3ccncc32)cc1" displays pIC50 of 6.70 to 7.30

According to the records, this molecule Clc1ccc(-n2c(-c3cnc(N4CCNCC4)o3)nc3ccncc32)cc1 [Example 18, dihydrochloride] displays pIC50 of 6.70 to 7.30

According to the records, this molecule "FC(F)(F)c1ccc(-n2c(-c3ccc(N4CCOCC4)nc3)nc3ccncc32)cc1" displays pIC50 of 6.70 to 7.30

According to the records, this molecule "Cc1cc(N2CCOCC2)nc(C)c1-c1nc2ccncc2n1-c1ccc(F)cc1" displays pIC50 of 5.92 to 6.70

According to the records, this molecule "Clc1ccc(-n2c(-c3ccncc3)nc3ccncc32)cc1" displays pIC50 of 5.92 to 6.70

According to the records, this molecule "NC(=O)NC1CCN(c2ccc(-c3nc4ccncc4n3-c3ccc(Cl)cc3)cn2)CC1" displays pIC50 of 5.92 to 6.70
